# Assay details: yeast display, Sf9 membrane polyspecificity reagent, FACS + sequencing; frameworks hold sequencing errors
Measured metric: polyreactivity (PSR sort gate)

Consider the reported polyreactivity (PSR sort gate) for these sequences:
{"Sequence code": "QVQLVESGGGLVQAGGSLRLSCAASGRTFRVYAMGWYRQAPGKERELVASITNDGSTYADSVKGRFTISRDNAKNTVYLQMNSLKPEDTAVYFCAARFPQWRYSRRTGERFDYWGQGTQVTVSS", "polyreactivity (PSR sort gate)": "low polyreactivity"}
{"Sequence code": "QVQLVESGGGLVQAGGSLRLSCAASGPMFTSNAMGWYRQAPGKERELVAAISRRGTRTYYADSVKGRFTISRDIAKHSVYLQMNSLKPEDTAVYYCAATTGEQEDYWGQGTQVTVSS", "polyreactivity (PSR sort gate)": "high polyreactivity"}
{"Sequence code": "QVQLVESGGGLVQAGGSLLLSCAASGRTFTRYAMGWYRQAPGKERELVASITNGGGTYYADSVKGRFTMSRDNAKNTVYLQMNSLKPEDTAVYYCAKAERVTSHLYYSWGQGTQVTVSS", "polyreactivity (PSR sort gate)": "low polyreactivity"}
{"Sequence code": "QVQLVESGGGLVQAGGSLRLSCAASGRNFPYYAMGWYRQAPGKERELVAAISSSGGGTYYADSVKGRFTISRDNEKNTVYLQMNSLKPEDTAVYYCAAVYKVHSGLYDYWGQGTQVTLSS", "polyreactivity (PSR sort gate)": "high polyreactivity"}

Here is the next item to consider.
Give polyreactivity (PSR sort gate) for the following sequence: `QVQLQESGGGLVQAGGSLRLSCAASGSISGPHVMGWYRQAPGKVREFVAAINVGANTYYADNVKGRFTISRDNAKNTVYLQMNSLKPEDTAVYYCAAAYYGDIGHEYWGQGTQVTVSS` low polyreactivity

###

# Assay details: yeast display, Sf9 membrane polyspecificity reagent, FACS + sequencing; frameworks hold sequencing errors
Measured metric: polyreactivity (PSR sort gate)

Consider the reported polyreactivity (PSR sort gate) for these sequences:
{"Sequence code": "QVQLVESGGGLVQAGGSLRLRCAASGRIFWSNAMGWYRQAPGKERELVAAISSGGSTNYADSEKGRFTISRDNAKNTVYLQMNSLKPEDTEVYYCATRGIQRGFSRWGGLDYWGQVTQVTVSS", "polyreactivity (PSR sort gate)": "low polyreactivity"}
{"Sequence code": "QVQLVESGGGLVQAGGSLRLSCAASGRIFSVYAMGWYRQEPGKERELVAAITRNGATTYYADSVKGRFTISRDNAKNTVYLQMNSLKPEDTAVYYCAARPLFASRTKYGYWGQGTQVTVSS", "polyreactivity (PSR sort gate)": "high polyreactivity"}
{"Sequence code": "QVQLVESGGGLVQAGGSLRLSCAASGSIFGLYAMGWYRQAPGKERELVAVITYSVGTTYYADSVKGRFTISRDNAKNTVYLQMNSLKPEDTAVYYCAADLYWYYPWSAYYGEYDYWGQGTQVTVSS", "polyreactivity (PSR sort gate)": "low polyreactivity"}
{"Sequence code": "QVQLVESGGGLVQAGGSLRLSCAACGFTFAYYAMGWYRQAPGKERELVATITSGGRTYYADSVKGRFTISRDNAKNTVYFQMNSLKPEDTAVYYCAGAGKGRYHFRSTMDYWGQGTQVTVSS", "polyreactivity (PSR sort gate)": "high polyreactivity"}

Give polyreactivity (PSR sort gate) for the following sequence: `QVQLVESGGGLVQAGGSLRLSCAASGSIFPDYAMGWYRQAPGKERELVAADSVKGRFTISRDNAKNTVYLQMNSLKPEDTAVYYCNKDYIIRRGPIVYYGFDYWGQGNQVTVSS` low polyreactivity

###

# Assay details: yeast display, Sf9 membrane polyspecificity reagent, FACS + sequencing; frameworks hold sequencing errors
Measured metric: polyreactivity (PSR sort gate)

Consider the reported polyreactivity (PSR sort gate) for these sequences:
{"Sequence code": "QVQLVESGGGLVQAGGSLRLSCAASGSTFNGYTMGCYRQAPGKEREFVATITFSDGSTYYADSVKGRFTISRDNAKNTVYLQMNSLKPEDTAVYYCNVDSPIGYDYWGQGTQVTVSS", "Measured metric": "polyreactivity (PSR sort gate)", "Observed": "low polyreactivity"}
{"Sequence code": "QVQLVESGGGLVQAGGSLRISCDASGSIYSSNALGWYSQAPGKERELVAAISSSGSRTYYADSVKGRFTISRDKALITVYVQMNSLIPVDTAVDYWAAVIRYTRSYDYWGQGTQVTVSS", "Measured metric": "polyreactivity (PSR sort gate)", "Observed": "high polyreactivity"}
{"Sequence code": "QVQLVESGGGLVQAGGSLRLSCAASGNTYLNAMGWYRQAPGKERELVAAISKGGADTYYADSVKGRFTISRDNAKNTVYLQMNSLKPEDTAVYYCAADGYADGWWVEYPWTYDYWGQGTQVTVSS", "Measured metric": "polyreactivity (PSR sort gate)", "Observed": "low polyreactivity"}
{"Sequence code": "QVQLVESGGGLVQAGGSLRLSCAASGSIFYWYAMGWYRQAPGKERELVATNRYRGGNTYYADSVKGRFTISRDNAMNTVYLQMNSLKAEDTAVYYADFVKFCKYYQRYDYWGQGTQVTVSS", "Measured metric": "polyreactivity (PSR sort gate)", "Observed": "high polyreactivity"}
{"Sequence code": "QVQLVDSGGGLVQAGGSLRLSCAASGRTSIWNAMGWYRQAPGKERELVASISWSGGSTYYADSVKGRFTISRDNAKNTVYLQMNSLKPEDTAVYYCAKTGYFLVFNEHLHKKRYDSWGQGTQVTVSS", "Measured metric": "polyreactivity (PSR sort gate)", "Observed": "low polyreactivity"}
{"Sequence code": "QVQLVESGGGLVQAGGSLRLSCAASGRTFWSYAMGWYRQAPGKEREFVAAISRRGGITYYADSVKGRFTLSRDNAKNTVYLQMNSLKPEDTAVYYCAKGAQSYYGGQVKYDYWGQGTQVTVSS", "Measured metric": "polyreactivity (PSR sort gate)", "Observed": "high polyreactivity"}
{"Sequence code": "QVQLEDSGGGLVQAGGSLRLSCAASGSIIGSYAMGLYRQAPGKERELVAAISRRGGSTYYADSVKGRFTISRDNAKNTVYLQMNSLKPEDTAVYYCARRDYGVLNKGLGQEGDYWGQGTQVTVSS", "Measured metric": "polyreactivity (PSR sort gate)", "Observed": "low polyreactivity"}
{"Sequence code": "QVQLLESGGGLVQAGGSLRLSCAASGSIFGRYVMGWYRQAPGKERELVPRITQSGGSTYYADSVKGRFTISRDNAKNTVYLQMNSLKPEDTAVYYCNVARWGNIPVGEYDYWGQGTQVTVSS", "Measured metric": "polyreactivity (PSR sort gate)", "Observed": "high polyreactivity"}

Give polyreactivity (PSR sort gate) for the following sequence: `QVQLVESGGGLVQAGGSLRLSCAASGYILWNAIGWYRQAPGKERELVAAITSGGSTYYADSVKGRFSISRDNAKNTVYLQMNSRKPEDTAVYDCNQESYFDTYRRYDSWGQGTQETVSS` low polyreactivity

Give polyreactivity (PSR sort gate) for the following sequence: `QVQLVESGGGLVQAGGSLRLSCAASGSIFFARYAMGWYRQAPGKERELVAAITRATSTTYADSVKGRFTISRDNAKNTVYLQMNSLKPEDTAVYYCAATKIGGGSFRPYYYWGQGTQVTVSS` high polyreactivity

Give polyreactivity (PSR sort gate) for the following sequence: `QVQVVESGGGLVQAGGSLRLSCAASGSIFPFYVMGWYRQAPGKEREFVATISSRGGSTYYADSVKGRFTISRDNAKNTVYLQMNSLKPEDTAVYYCAAGWYRNDWGQRLHTYYYWGQGTQVTVSS` high polyreactivity

###

# Assay details: yeast display, Sf9 membrane polyspecificity reagent, FACS + sequencing; frameworks hold sequencing errors
Measured metric: polyreactivity (PSR sort gate)

Consider the reported polyreactivity (PSR sort gate) for these sequences:
{"Sequence code": "QVKLVESGGGLVQAGGSLRLTCAASGSNFDINAMGWYRQAPGKERELVAAISWSGGDTYADSVKGRFTISRDNAKITVYLQMNCLKPEDTAVYYCDTGDPHEEQYYYDYCGQGTQVTVSS", "polyreactivity (PSR sort gate)": "low polyreactivity"}
{"Sequence code": "QVQLVESGGGLVQAGGSLRLSCAASGFIFEAYAMGWYRQAPGKERELVAAIDSGGSTDYADSVKGRFTISRDNAKNTVYLQMNSLTPEDTAVYYCIAERAYLLWYNFDYWGQGTKVTVSS", "polyreactivity (PSR sort gate)": "low polyreactivity"}
{"Sequence code": "QVQLVESGGGLVQAGGSLRLICASSGSILRYNTMVWYRQAPGKERELVAAITYRGGSTYYADSVKGRFTISRDNAKNTVYLQMNSLKPEDTAVYYCNAARWWKTPDDYWGQGNQVTVSS", "polyreactivity (PSR sort gate)": "high polyreactivity"}
{"Sequence code": "QVQLVESGGGLVQAGGSLRLSCAASGFIFYRYVMGWYRQAPGKERELVAAITWSGGSTYYADSVKGRFTISRDNAKNTVYLQMNSLKPEDTAGNYCAAEWWLPSFGMDYWGQGTQVTVSS", "polyreactivity (PSR sort gate)": "low polyreactivity"}
{"Sequence code": "QVQLVESGGGLVQAGGSLRISCAASGRTFDPYAMGWYRQAPGKERELVASISRGGSTYADSVKGRFTISRDNAKNTVYLQMNSLKPEDTAVYYCNTSLYTEGDAMDYWGQGTQVTVSS", "polyreactivity (PSR sort gate)": "low polyreactivity"}
{"Sequence code": "QVQLVESGGGLVQAGGSLRLTCAASGSIFSYYAMGWYRQAPGKERELVAAITSGGGTYYADSVKGRFTISRDNAKNTVFLQMNSLKPEDTAVYYCAKDGYPDQDVQVFNDSDYWGQGTQVTVSS", "polyreactivity (PSR sort gate)": "low polyreactivity"}

Give polyreactivity (PSR sort gate) for the following sequence: `QVQLVESGGGLVQAGGSLRLSCAASGRTFVYNAMGWYRQAPGKERELVAAIDGGGDRTYYADSVKGRFTISRDNAKNTVYLQMNSLKPEDTAVYYCARDPVVTYYYSYPEGDYWGQGTQVTVSS` low polyreactivity

Give polyreactivity (PSR sort gate) for the following sequence: `QVQLVESGGGLVQAGGSLRLSCAASGSIFVWYVMGWYRQAPGKERELVAAITWSAARTYYADSVKGRFTISRDNAKNTVYLQMNSLKPADTAVYYCAADHVSYQPSSRIFDYWGHGTQVTVSS` low polyreactivity

Give polyreactivity (PSR sort gate) for the following sequence: `QVQLVESGGGLVQAGGSLRLSCAASGLTFRRYDMGWYRQAPGKERELVAAITGGGSTYYADSVKGRFTISRDNAKNTVYLQMNSLKPEDTAVYYCAAGTWYWSYAYDYWGQGTQVTVSS` high polyreactivity

Give polyreactivity (PSR sort gate) for the following sequence: `QVQLVESGGGLVQAGGSLRLSCAASGSILRSYAMGWYRQAPGKERELVAVINGSGGRTYYADSVKGRFTISRDNAKNTVYLQMNSLKPEDTAVYYCAARRHTKRPGYDYWGQGTQVTVSS` low polyreactivity

Give polyreactivity (PSR sort gate) for the following sequence: `QVQLVESVGGLVQAGGSLRLICAASGIIFKFNAMGWYRQAPGKEREFVAAIRWRGGSTYYADSVKGRFTISRDNAKNTVYLQMNSLKPEDTAVYYCAATYRTGYYYWGQGTQVTVSS` high polyreactivity

Give polyreactivity (PSR sort gate) for the following sequence: `QVQLVESGGGLDQAGGSLRLSCAASGRTFVVYAMGWYRQAPGKERELVAAITSSGNTYYADSVKGRFTISRDNAKNTVYLQMNSLKPEDTAVYYCAAYSLYGYDYWGQGTQVTVSS` low polyreactivity

Give polyreactivity (PSR sort gate) for the following sequence: `QVQLVESGGGLVQAGGSLRLSCAASGSIIDQYVMGWYRQAPGKERELVADISIRGGSTYYADSVKGRFTISRDNAKNTVYFQMNSLKPEDTAVYYCNADEWWGYPWEEDDYWGQGTQVTVSS` low polyreactivity

Give polyreactivity (PSR sort gate) for the following sequence: `QVQLVESGGGLVQAGGSLRLSCAASGRTLARNAMGWDRQAPGKEWELVASINGRTTRTYYADSVKGRFTISRDNANNTVYLQRNSLKPEDTAVYYCAADPPGYVYGKRYYWGQGTQVTVSS` high polyreactivity

Give polyreactivity (PSR sort gate) for the following sequence: `QVQLVESGGGLVQAGGSRRLSCAASGSTFRRYAMGWSRQAPWKERELVAAISGRGGSTSYADSVKGRFTISRDNAKNTVYLQMNSLKPEDTAVYYCNARGYPSRFKYYYWGEGTQVTVSS` high polyreactivity

Give polyreactivity (PSR sort gate) for the following sequence: `QDQLVESAGGLVQAGGSLRLSCAASGRTFVTNTMGWSRQAPGKERELVAAISSRGGTTYYADSVKGRFTISRDNAKNTVYLQMNSLKPEDTAVYYCNTGTRAIQRDGFEYWGQGTQVTVSS` low polyreactivity

Give polyreactivity (PSR sort gate) for the following sequence: `QVQLVESGGGLVQAGGSLRLSSASSGSIFTDNGMGCYRHAPGKESELVAAISWRGGTYYADSVKGRFTISRDNAKNTVYLQMNSLKPEDSAVYYSAADVLRISTRLFRGPGFDSWGQGTQVTVSS` low polyreactivity

Give polyreactivity (PSR sort gate) for the following sequence: `QVQHEESGGGLVQAGGSLRLSCAASGITINFYDMGRYRQARGKERELGAAITASGGGSTYYADSVKGRFTISRDNAKNTVYLQMNSLKPEYTAVYYCNADSTGSFYTFDYWGQGTQVTVSS` low polyreactivity

Give polyreactivity (PSR sort gate) for the following sequence: `QVQLVESGGGLVQAGGSLRLSCAASGFTFTQYAMGWYGQAPGKEREFVAAITASGGSTYYADSVKGRFTISRDNAKNTVYLQMNSLKPEDTAVYYCAAKGRPDGKYDYWGQGTQVTVSS` high polyreactivity

Give polyreactivity (PSR sort gate) for the following sequence: `QVQLVESGGGLVQAGGSLRLSCAASGSIFPDYAMGWYRQAPGKERELVAGISSNSGSTYYADSVKGRFTISRDNAKNTVYLQMTSLKPEDTAVYYCAKDSFWRDTGYTDGDYWGQGTQVTVSS` low polyreactivity

Give polyreactivity (PSR sort gate) for the following sequence: `QVQIVESGRGLVQAGGSLRLSCAPSGFTLGFFAMGWYRQAPGKERELVAAINWRGGSTYYADSVKVRFTISRDNAKNTVYLQMNSLKPEDTAVYYCNRVYRPSRYDYWGQGTQVTVSS` high polyreactivity

The measurements presented in this section are drawn from the nanobody polyreactivity screen of Harvey et al. (2022).
